meta.source: patent US7781421B2

# System: Xenopus laevis tadpoles
# assay_name: Tadpole loss of righting (LRR) and swimming (LSR) reflexes
# Type: in vivo
# test_conditions: 3 h equilibration at room temperature
Measured LRR ED50 (loss of righting response) accompanies every entry in the list below.
Give the value in nM but do not write nM after it.

1. CC12CCC(O)CC1CCC1C2CCC23C=CC(=O)CC2CCC13 (stereo not drawn) [Compound 30b] :: 560
2. CC(=O)C1=CCCC23CCC4C(CCC5CC(O)CCC54C)C2CCC13 (stereo not drawn) :: 7200
3. C=C1CCC[C@]23CCC4C(CC[C@@H]5C[C@H](O)CC[C@]45C)C2CC[C@H]13 (stereo partly drawn) :: 4880

# input compound: CC12CCC(O)CC1CCC1C2CCC23CC=CC(=O)C2CCC13 (stereo not drawn) [Compound 11b] ; wanted: its LRR ED50 (loss of righting response)
2560

# input compound: CC12CCC(O)CC1CCC1C2CCC23CCC(=CC#N)C2CCC13 (stereo not drawn) [Compound 96] ; wanted: its LRR ED50 (loss of righting response)
2770

# input compound: CC12CCC(O)CC1CCC1C2CCC23CCC(=O)CC2CCC13 (stereo not drawn) ; wanted: its LRR ED50 (loss of righting response)
2470

====

Measured melting point accompanies every entry in the list below.

# input compound: C[C@]12CC[C@@H](O)C[C@@H]1CCC1C3CC[C@@H]4[C@@H](C#N)CCC[C@]34CCC12 (stereo partly drawn) ; wanted: its melting point
250 to 251 °C

====

# Test system: Xenopus laevis tadpoles
# assay_name: Tadpole loss of righting (LRR) and swimming (LSR) reflexes
# Format: in vivo
# test_conditions: 3 h equilibration at room temperature
parameter: LRR ED50 (loss of righting response) (nM)
Give the value in nM but do not write nM after it.

1) C[C@]12CC[C@@H](O)C[C@@H]1CCC1C3CC[C@@H]4/C(=C/C#N)CCC[C@]34CCC12 (stereo partly shown) :: 40
2) CC12CCC(O)CC1CCC1C2CCC23CCCC(=CC#N)C2CCC13 (stereo not shown) :: 680
3) C[C@]12CC[C@@H](O)C[C@@H]1CCC1C3CC[C@@H]4C(=O)CCC[C@]34CCC12 (stereo partly shown) :: 1360
4) C[C@]12CC[C@@H](O)C[C@@H]1CCC1C3CC[C@@H]4CC(=O)CC[C@]34CCC12 (stereo partly shown) :: 2370

Now let's try a different one.
# input molecule: CC(=O)[C@H]1CC[C@H]2[C@@H]3CC[C@H]4C[C@H](O)CC[C@]4(C)[C@H]3CC[C@]12C [Compound 1a, (3α,5α)-3-Hydroxypregnan-20-one, reference compound] ; wanted: its LRR ED50 (loss of righting response)
420

====

# tested_on: rat α1β2γ2 GABAA Receptor (Rattus norvegicus, UniProt P18508+P62813+P63138, INS375LLRMFSFK)
# Construct: from linearized pBluescript vectors containing receptor coding regions; expressed in transfected cells; host or cells: Xenopus laevis oocytes injected with in vitro transcribed capped mRNA
# Sequence (P62813 28-455, stated change not applied): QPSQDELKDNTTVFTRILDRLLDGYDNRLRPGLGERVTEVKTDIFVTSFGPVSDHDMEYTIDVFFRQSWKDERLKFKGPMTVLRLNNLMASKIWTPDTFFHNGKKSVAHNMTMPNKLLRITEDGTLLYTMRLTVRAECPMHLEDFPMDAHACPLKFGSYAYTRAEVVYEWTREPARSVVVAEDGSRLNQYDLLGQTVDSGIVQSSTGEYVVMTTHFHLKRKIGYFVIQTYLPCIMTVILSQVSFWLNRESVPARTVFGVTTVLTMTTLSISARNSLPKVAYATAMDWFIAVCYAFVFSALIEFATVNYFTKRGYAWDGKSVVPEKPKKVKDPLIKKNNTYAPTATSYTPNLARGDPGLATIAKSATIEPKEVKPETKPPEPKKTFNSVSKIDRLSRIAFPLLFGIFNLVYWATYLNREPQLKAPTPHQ
# Sequence (P63138 26-474, stated change not applied): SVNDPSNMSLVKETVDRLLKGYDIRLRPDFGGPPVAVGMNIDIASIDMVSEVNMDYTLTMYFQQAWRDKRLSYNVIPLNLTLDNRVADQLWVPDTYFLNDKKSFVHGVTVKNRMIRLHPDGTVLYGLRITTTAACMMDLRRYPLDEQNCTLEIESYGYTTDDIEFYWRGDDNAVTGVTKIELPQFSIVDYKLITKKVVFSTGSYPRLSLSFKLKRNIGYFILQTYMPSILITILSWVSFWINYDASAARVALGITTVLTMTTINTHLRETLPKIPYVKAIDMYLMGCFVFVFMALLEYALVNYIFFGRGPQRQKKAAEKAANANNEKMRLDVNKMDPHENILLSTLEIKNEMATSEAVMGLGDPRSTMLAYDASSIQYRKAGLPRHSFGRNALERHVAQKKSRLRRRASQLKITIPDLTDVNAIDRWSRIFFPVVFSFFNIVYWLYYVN
# Sequence (P18508 with tags, fused parts or gaps INS375LLRMFSFK): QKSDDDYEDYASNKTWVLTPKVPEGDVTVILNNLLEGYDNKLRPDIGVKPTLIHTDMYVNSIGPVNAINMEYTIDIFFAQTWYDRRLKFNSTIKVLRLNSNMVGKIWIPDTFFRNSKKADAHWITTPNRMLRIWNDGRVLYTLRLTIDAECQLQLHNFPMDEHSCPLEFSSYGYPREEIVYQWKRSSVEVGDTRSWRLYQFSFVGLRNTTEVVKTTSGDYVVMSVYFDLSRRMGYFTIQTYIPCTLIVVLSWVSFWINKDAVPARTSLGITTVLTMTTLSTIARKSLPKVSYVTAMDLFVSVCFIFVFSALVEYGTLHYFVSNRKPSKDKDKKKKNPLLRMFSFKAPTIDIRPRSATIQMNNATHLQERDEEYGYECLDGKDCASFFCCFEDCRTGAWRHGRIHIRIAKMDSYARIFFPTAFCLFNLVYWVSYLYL
# assay_name: Xenopus oocyte two-electrode voltage-clamp electrophysiology
# Assay type: cell-based
# test_conditions: 1 μM compound co-applied with 2 μM GABA; −70 mV
parameter: Oocyte electrophysiology, ratio of currents in presence/absence of compound, 1 μM
No unit in the answer, please; the number alone is enough.

Reference set (3 entries):
1) CC12CCC(O)CC1CCC1C2CCC23CCCC(O)C2CCC13 (centres unmarked) [Compound 67] :: 0.94
2) C[C@]12CC[C@@H](O)C[C@H]1CCC1C3CC[C@@H]4C(=O)CCC[C@]34CCC12 (some centres unmarked) :: 1.12
3) COC1CCCC23CCC4C(CCC5CC(O)CCC54C)C2CCC13 (centres unmarked) [Compound 70] :: 0.87

# input compound: CC12CCC(O)CC1CCC1C2CCC23CC4OC4C(=O)C2CCC13 (centres unmarked) [Compound 19b] ; wanted: its Oocyte electrophysiology, ratio of currents in presence/absence of compound, 1 μM
2.11

# input compound: CC(=O)C1CCCC23CCC4C(CCC5CC(O)CCC54C)C2CCC13 (centres unmarked) [Compound 79] ; wanted: its Oocyte electrophysiology, ratio of currents in presence/absence of compound, 1 μM
1.13
